Molecular target: biotinylated MSLN (human MSLN in the MSLN/MUC16 competition ELISA) (human, UniProt Q13421 296-598, limits assumed, biotinylated)
Experiment: competition ELISA, scFv titrated with biotinylated MSLN; competitor coated MUC16
Outcome measure: IC50

Form field: reported IC50 of anti-MSLN scFv PRO1922 (scFv, also called 54-21-H03-sc01) scFv: DIQMTQSPSSLSASVGDRVTITCQASESIYSSLAWYQQKPGKAPKLLIYLASTLASGVPSRFSGSGSGTDFTLTISSLQPEDFATYYCQSTDYTTSTHRNSFGTGTKVTVLGGGGGSGGGGSGGGGSGGGGSEVQLVESGGGLVQPGGSLRLSCAASGFSFSTTYYMCWVRQAPGKGLEWIGCTNTASSVRTYYATWAKGRFTISRDNSKNTVYLQMNSLRAEDTAVYYCARDMGFADYALNLWGQGTLVTVSS
0.05 nM

Form field: reported IC50 of anti-MSLN scFv PRO1783 (scFv, also called 54-01-G02-sc01) scFv: DIQMTQSPSSLSASVGDRVTITCQASQNIYSNLAWYQQKPGKAPKLLIYDASDLASGVPSRFSGSGSGTDFTLTISSLQPEDFATYYCQQVRSSSDIDNPFGTGTKVTVLGGGGGSGGGGSGGGGSGGGGSQVQLVESGGGLVQPGGSLRLSCAASGFSLSSYAMGWVRQAPGKGLEWIGYISTINNTYYASWAKGRFTISRDNSKNTVYLQMNSLRAEDTAVYYCAREIRSGWVDYGFSIWGQGTLVTVSS
0.5 nM

Form field: reported IC50 of anti-MSLN scFv PRO1925 (scFv, also called 54-32-A07-sc02) scFv: ALQMTQSPSSLSASVGDRVTITCQASQSISNYLAWYQQKPGKPPKFLIYDASDLASGVSSRFSGSGSGTDFTLTISSLQPEDFATYYCQQVYDSNNVENVFGTGTKVTVLGGGGGSGGGGSGGGGSGGGGSQSQLVESGGGLVQPGGSLRLSCAVSGFSLSSYAMGWVRQAPGKGLEYIGYISKIGTTYYASWAKGRFTISKDNSKNTVYLQMNSLRAEDTAVYFCARGSSSGGYLDDGFDPWGQGTLVTVSS
0.14 nM
